- System: S. epidermidis strain 1457
- test-description: MBIC/MIC secondary assay
- Type: cell-based, Staphylococcus epidermidis
- condition-info: S. epidermidis strain 1457
Quick reference for MBIC among some compounds

| smiles-str | measured-value |
| --- | --- |
| CCOc1cc(/C=C2\SC(=S)N(c3cccnc3)C2=O)ccc1O | 12.5 µM |
| CCOc1cc(/C=C2\SC(=S)N(c3ccc(F)nc3)C2=O)ccc1O | 25 µM |
| CCOc1cc(/C=C2\SC(=S)N(c3ccc(F)cc3)C2=O)ccc1O | 50 µM |

Entry "C=CCOc1cc(/C=C2\SC(=S)N(c3ccc(F)cc3)C2=O)ccc1O" : reported MBIC = ?
25 µM

Entry "CCOc1cc(/C=C2\SC(=S)N(c3cccc(F)c3)C2=O)ccc1O" : reported MBIC = ?
50 µM
